# Test system: RSV Long strain
# testDetails: Viral Cytopathic Effect (CPE) Assay
# Assay type: cell-based
# conditionsUsed: human respiratory syncytial virus, 144 h; RSV Long strain (ATCC), cell viability after 6 days by Cell Counting kit-8
Quick reference: log10 EC50 of the listed items.
measurementType: log10 EC50 (log10 of the value in nM)

# molecule, log10 EC50
records = [
    ("O=C1N(Cc2nc3cc(Cl)ccc3n2[C@@H]2CCS(=O)(=O)C2)c2cnccc2C12CC2 [Example 3-3]", 0.20),
    ("O=C1N(Cc2nc3cc(Cl)ccc3n2C2CCCC2)c2cnccc2C12CC2 [Example 2-3]", 1.51),
    ("O=C1N(Cc2nc3cc(Cl)cnc3n2C2CCS(=O)(=O)C2)c2cnccc2C12CC2 (centres unmarked) [Example 2-13]", 1.18),
    ("O=C1N(Cc2nc3cc(Cl)ccc3n2C2CCS(=O)(=O)CC2)c2cnccc2C12CC2 [Example 2-2]", 0.78),
    ("O=C1N(Cc2nc3cc(Cl)cc(F)c3n2C2CS(=O)(=O)C2)c2cnccc2C12CC2 [Example 6]", -0.05),
    ("O=C1N(Cc2nc3cc(Cl)ccc3n2[C@H]2CC[C@@H](C(=O)O)CC2)c2cnccc2C12CC2 [Example 2-12]", 2.71),
    ("C[C@]1(O)C[C@H](n2c(CN3C(=O)C4(CC4)c4ccncc43)nc3cc(Cl)ccc32)C1 [Example 2-17]", 0.70),
    ("CC1(C)C(=O)N(Cc2nc3cc(Cl)ccc3n2C2CS(=O)(=O)C2)c2cnccc21 [Example 4-2]", 1.98),
]

====

# Test system: RSV Long strain
# testDetails: Viral Cytopathic Effect (CPE) Assay
# Type: cell-based
# conditionsUsed: human respiratory syncytial virus, 144 h; RSV Long strain (ATCC), cell viability after 6 days by Cell Counting kit-8
pEC50: −log10 of the molar value.
Each entry below carries its recorded pEC50.
measurementType: pEC50

# molecule, measurementType, quantitativeResult
data = [
    ("CS(=O)(=O)[C@H]1C[C@@H](n2c(CN3C(=O)C4(CC4)c4ccncc43)nc3cc(Cl)ccc32)C1 [Example 1-1]", "pEC50", 8.00),
    ("O=C1N(Cc2cc3cc(Cl)ccc3n2C2CCS(=O)(=O)C2)c2cnccc2C12CC2 (stereo not shown) [Example 18]", "pEC50", 8.72),
    ("CS(=O)(=O)N1CC(n2c(CN3C(=O)C4(CC4)c4ccncc43)nc3cc(Cl)ccc32)C1 [Example 12]", "pEC50", 8.74),
    ("O=C1N(Cc2cc3cc(Cl)cc(F)c3n2C2CCS(=O)(=O)C2)c2cnccc2C12CC2 (stereo not shown) [Example 17]", "pEC50", 9.22),
]
